# System: Endogenous Huntingtin Protein
# procedure.text: Endogenous Huntingtin Protein Assay (ELISA-based MSD electrochemiluminescence)
# Type: cell-based
# test.context: Table 2; MSD plates coated with MW1 (expanded polyglutamine) or MAB2166 capture antibody; "inactive" = result above the detection limit of the assay
pIC50: −log10 of the molar value.
assay.endpoint: pIC50

Task: What measured pIC50 goes with CC(C)[C@H]1CN(c2ncc(-c3ccc(-c4ccc5nccn5c4)cc3O)nn2)CCN1 ?
Output: 7.26

a. Oc1cc(-c2cc(N3CCC3)ncn2)ccc1-c1cnc(N2CCNC(C3CC3)C2)nn1 (racemic)
b. Cc1cn2nc(-c3ccc(-c4cnc(N5C[C@@H](C)N[C@@H](C)C5)nn4)c(O)c3)ccc2n1
c. CC1CN(c2ncc(-c3ccc(-c4cn[nH]c4)cc3O)nn2)CCN1 (centres unmarked)
d. CN1CCN(c2ncc(-c3ncc(-c4cn[nH]c4)cc3O)nn2)CC1
Task: Order the 4 compounds from highest to lowest pIC50. Please express your ranking as an ordered list of the labels.
Output: b, c, d, a

---

# Tested on: Endogenous Huntingtin Protein
# procedure.text: Endogenous Huntingtin Protein Assay (ELISA-based MSD electrochemiluminescence)
# Type: cell-based
# test.context: Table 2; MSD plates coated with MW1 (expanded polyglutamine) or MAB2166 capture antibody; "inactive" = result above the detection limit of the assay
# Method: Compounds of Formula (I) were tested using the Meso Scale Discovery (MSD) Assay provided in International Application No. PCT/US2016/066042, filed on Dec. 11, 2016 and claiming priority to U.S. Provisional Application 62/265,652 filed on Dec. 10, 2015, the entire contents of which are incorporated herein by reference. The Endogenous Huntingtin Protein assay used in Biological Example 1 was developed using the ELISA-based MSD electrochemiluminescence assay platform. […]
assay.endpoint: IC50 (µM)

Examples from the recorded data:
Task: Give Endogenous Huntingtin Protein IC50 for Cc1cc(-c2ccc(-c3cnc(N4CCN[C@@H](C(C)C)C4)nn3)c(O)c2)cc2cn(C)nc12
Output: 0.0058

Task: Param readout= IC50; system= Endogenous Huntingtin Protein; entry= CC[C@H]1CN(c2ncc(-c3ccc(-c4cn[nH]c4F)cc3O)nn2)C[C@@H](C)N1 ; returns value.
Output: 0.007

P. CC(C)(C)[C@H]1CN(c2ncc(-c3ccc(-c4c[nH]nc4F)cc3O)nn2)CCN1
Q. C[C@@H]1CN(c2ncc(-c3ccc(-c4cc5nn(C)nc5cn4)cc3O)nn2)C[C@H](C)N1
Task: // which entry reports the smaller IC50, P or Q ? Lab note: record the label of whichever item you select.
Output: P
(P: 0.0073 µM, Q: 0.0125 µM)

a. C[C@@H]1CN(c2ncc(-c3ccc(-c4c[nH]nc4F)cc3O)nn2)C[C@H](C2CCC2)N1
b. CC(C)[C@@H]1CN(c2ncc(-c3ccc(-c4cn[nH]c4F)cc3O)nn2)C[C@H](C)N1
c. Oc1cc(-c2cn[nH]c2)ccc1-c1cnc(N2CCNC(c3ccccc3)C2)nn1 (centres unmarked)
Task: Parameters: sort_field (IC50), sort_dir (desc). Your task in answering is to list the labels in the requested order.
Output: c, b, a
(c: 1.44 µM, b: 0.0679 µM, a: 0.0095 µM)

---

# Test system: Endogenous Huntingtin Protein
# procedure.text: Endogenous Huntingtin Protein Assay (ELISA-based MSD electrochemiluminescence)
# Format: cell-based
# test.context: Table 2; MSD plates coated with MW1 (expanded polyglutamine) or MAB2166 capture antibody; "inactive" = result above the detection limit of the assay
# Description: Compounds of Formula (I) were tested using the Meso Scale Discovery (MSD) Assay provided in International Application No. PCT/US2016/066042, filed on Dec. 11, 2016 and claiming priority to U.S. Provisional Application 62/265,652 filed on Dec. 10, 2015, the entire contents of which are incorporated herein by reference. The Endogenous Huntingtin Protein assay used in Biological Example 1 was developed using the ELISA-based MSD electrochemiluminescence assay platform. […]
assay.endpoint: IC50 (nM)

Completed entries (count: 4):
Task: State its IC50 on Endogenous Huntingtin Protein: CC(C)(C)[C@H]1CN(c2ncc(-c3ccc(-c4ncsn4)cc3O)nn2)CCN1
Output: 10.8

Task: // map CC(C)(C)[C@H]1CN(c2ncc(-c3ccc(-n4nccn4)cc3O)nn2)CCN1 to recorded IC50 (system: Endogenous Huntingtin Protein)
Output: 15.1

Task: Record CC[C@H]1CN(c2ncc(-c3ccc(-n4nccn4)cc3O)nn2)CCN1 : what is its IC50 with Endogenous Huntingtin Protein?
Output: 38.9

Task: Request body: readout IC50, system Endogenous Huntingtin Protein, query [2H]C([2H])([2H])Oc1cc(-c2ccc(-c3cnc(N4CCN[C@@H](C(C)C)C4)nn3)c(O)c2)ncn1 . Return the value.
Output: 9.5

I. C[C@H]1CN(c2ncc(-c3ccc(-c4cn[nH]c4)cc3O)nn2)C[C@@H](C2CC2)N1
II. Oc1cc(-c2c[nH]nc2F)ccc1-c1cnc(N2CCNC3(CC3)C2)nn1
Task: Record comparison, field IC50: mark the lower of I and II . To answer, give the label that identifies your chosen option.
Output: I

I. [2H]C([2H])([2H])n1cc(-c2ccc(-c3cnc(N4C[C@@H](C)N[C@@H](C5CCC5)C4)nn3)c(O)c2)cn1
II. CC(C)[C@H]1CN(c2ncc(-c3ccc(-c4nc(C#N)cs4)cc3O)nn2)CCN1
III. Cc1nc2c(C)nc(-c3ccc(-c4cnc(N5CCN[C@@H](C(C)C)C5)nn4)c(O)c3)cn2n1
Task: Hey, can you sort those molecules up there by IC50, smallest first? Answer format: the labels, in the requested order.
Output: III, I, II
(III: 5.1 nM, I: 55.1 nM, II: 646 nM)

P. CC1(C2CN(c3ncc(-c4ccc(-c5cn[nH]c5)cc4O)nn3)CCN2)CC1 (centres unmarked)
Q. CC(C)[C@H]1CN(c2ncc(-c3ccc(-c4cnc5nn(C)nc5c4)cc3O)nn2)CCN1
R. Oc1cc(-c2cn[nH]c2F)cc(F)c1-c1cnc(N2CCNC(C3CC3)C2)nn1 (centres unmarked)
S. [2H]C([2H])([2H])n1cc(-c2ccc(-c3cnc(N4C[C@@H](C)N[C@@H](C)C4)nn3)c(O)c2)cn1
T. Cn1nc2cc(-c3ccc(-c4cnc(N5CCN[C@@H](C6(C)CC6)C5)nn4)c(O)c3)cnc2n1
Task: # rank_down: sort by IC50, max first A complete answer lists every label in the requested sequence.
Output: S, R, P, T, Q
(S: 256 nM, R: 40.2 nM, P: 14.9 nM, T: 5.7 nM, Q: 3.3 nM)

1. CC[C@H]1CN(c2ncc(-c3ccc(-c4c[nH]nc4F)cc3O)nn2)CCN1
2. Cn1nc2cc(-c3ccc(-c4cnc(N5CCN[C@@H](C6CC6)C5)nn4)c(O)c3)cnc2n1
3. CC(C)[C@H]1CN(c2ncc(-c3ccc(-c4cn5ncnc5cn4)cc3O)nn2)CCN1
Task: rank_up(items): orders items by reported IC50 in ascending numerical order. // ordering of labels required in reply
Output: 2, 1, 3
